Each record here notes measured Cell Number average.
tested on: H1 or H9 human embryonic stem cells; test: Activin A bioassay: differentiation of human embryonic stem cells to definitive endoderm, cell number and SOX17 intensity by high content analysis (96-well, four days); assay type: cell-based; details: supernatant concentration 50x, assay dilution 1:20; assay plates #008, #009;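 also: Raw total cell count per well from high content imaging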
test_readout: Cell Number average

[
  {
    "molecule": "ACTN29: activin A variant peptide, SEQ ID 30 (protein) GLECDGKVNLCCKKQLFVSFKDIGWNDWIIAPSGYHANHCSGKCPSHIAGTSGSSLSFHSTVINHYRMRGHSPFSDMGSCCIPTKLRPMSMLYYDDGQNIIKKDIQNMIVEECGCS",
    "measured": 8835
  },
  {
    "molecule": "ACTN61: activin A variant peptide, SEQ ID 62 (protein) GLECDGKVNICCKKQLFGQTKDIGWNDWIIAPSGYHGGSCTGECPSHIAGTSGSSLSFHSTVINHYRMRGHSPNANLKSCCSPTKLRPMSMLYYDDGQNIIKKDIQNMKVEECGCT",
    "measured": 15256
  },
  {
    "molecule": "ACTN60: activin A variant peptide, SEQ ID 61 (protein) GLECDGKVNICCKKQSFGQTKDIGWNDWIIAPSGYHGGGCSGECPSHIAGTSGSSLSFHSTVINHYRMRGHSPWANLKSCCAPTKLRPMSMLYYDDGQNIIKKDIQNMVVEECGCV",
    "measured": 10603
  },
  {
    "molecule": "ACTN37: activin A variant peptide, SEQ ID 38 (protein) GLECDGKVNLCCKKQDFVSFKDIGWNDWIIAPSGYHANRCSGKCPSHIAGTSGSSLSFHSTVINHYRMRGHSPFSDMGACCIPTKLRPMSMLYYDDGQNIIKKDIQNMIVEECGCS",
    "measured": 2902
  },
  {
    "molecule": "ACTN1: wild type Activin A mature protein (SwissProt/UniProt: P08476), SEQ ID 2, expressed from applicant's construct (protein) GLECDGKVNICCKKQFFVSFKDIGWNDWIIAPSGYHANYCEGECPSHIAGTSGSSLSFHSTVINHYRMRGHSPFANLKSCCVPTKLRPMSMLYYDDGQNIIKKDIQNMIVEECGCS",
    "measured": 13673
  },
  {
    "molecule": "ACTN83: activin A variant peptide, SEQ ID 84 (protein) GLECDGKVNICCKKQSFGRAKDIGWNDWIIAPSGYHGGGCTGECPSHIAGTSGSSLSFHSTVINHYRMRGHSPFANLKSCCSPTKLRPMSMLYYDDGQNIIKKDIQGMKVEECGCT",
    "measured": 15829
  },
  {
    "molecule": "ACTN92: activin A variant peptide, SEQ ID 93 (protein) GLECDGKVNICCKKQSFGQAKDIGWNDWIIAPSGYHGGGCSGECPSHIAGTSGSSLSFHSTVINHYRMRGHSPFANLKSCCSPTKLRPMSMLYYDDGQNIIKKDIQGMKVEECGCT",
    "measured": 15009
  },
  {
    "molecule": "ACTN86: activin A variant peptide, SEQ ID 87 (protein) GLECDGKVNICCKKQSFGKTKDIGWNDWIIAPSGYHGGGCSGECPSHIAGTSGSSLSFHSTVINHYRMRGHSPWANLKSCCSPTKLRPMSMLYYDDGQNIIKKDIQNMVVEECGCT",
    "measured": 17034
  },
  {
    "molecule": "ACTN42: activin A variant peptide, SEQ ID 43 (protein) GLECDGKVNYCCKKQDFVSFKDIGWNDWIIAPSGYHANKCSGKCPSHIAGTSGSSLSFHSTVINHYRMRGHSPFSDMGSCCIPTKLRPMSMLYYDDGQNIIKKDIQNMIVEECGCS",
    "measured": 7805
  },
  {
    "molecule": "ACTN67: activin A variant peptide, SEQ ID 68 (protein) GLECDGKVNICCKKQSFGQTKDIGWNDWIIAPSGYHGGGCSGECPSHIAGTSGSSLSFHSTVINHYRMRGHSPWANLKSCCSPTKLRPMSMLYYDDGQNIIKKDIQNMKVEECGCT",
    "measured": 14821
  },
  {
    "molecule": "ACTN24: activin A variant peptide, SEQ ID 25 (protein) GLECDGKVNLCCKKQDFVSFKDIGWNDWIIAPSGYHANRCSGRCPSHIAGTSGSSLSFHSTVINHYRMRGHSPFSDMGSCCVPTKLRPMSMLYYDDGQNIIKKDIQNMIVEECGCS",
    "measured": 4785
  },
  {
    "molecule": "ACTN66: activin A variant peptide, SEQ ID 67 (protein) GLECDGKVNICCKKQMFGQAKDIGWNDWIIAPSGYHGGGCTGECPSHIAGTSGSSLSFHSTVINHYRMRGHSPWANLKSCCSPTKLRPMSMLYYDDGQNIIKKDIQNMVVEECGCT",
    "measured": 16460
  }
]
